subject of test: T1, IL10Rα and IL2Rγ on human primary cells (CD8 T cells, CD4 T cells, monocytes) (human) (UniProt Q13651)
T1 sequence (looked up) 1: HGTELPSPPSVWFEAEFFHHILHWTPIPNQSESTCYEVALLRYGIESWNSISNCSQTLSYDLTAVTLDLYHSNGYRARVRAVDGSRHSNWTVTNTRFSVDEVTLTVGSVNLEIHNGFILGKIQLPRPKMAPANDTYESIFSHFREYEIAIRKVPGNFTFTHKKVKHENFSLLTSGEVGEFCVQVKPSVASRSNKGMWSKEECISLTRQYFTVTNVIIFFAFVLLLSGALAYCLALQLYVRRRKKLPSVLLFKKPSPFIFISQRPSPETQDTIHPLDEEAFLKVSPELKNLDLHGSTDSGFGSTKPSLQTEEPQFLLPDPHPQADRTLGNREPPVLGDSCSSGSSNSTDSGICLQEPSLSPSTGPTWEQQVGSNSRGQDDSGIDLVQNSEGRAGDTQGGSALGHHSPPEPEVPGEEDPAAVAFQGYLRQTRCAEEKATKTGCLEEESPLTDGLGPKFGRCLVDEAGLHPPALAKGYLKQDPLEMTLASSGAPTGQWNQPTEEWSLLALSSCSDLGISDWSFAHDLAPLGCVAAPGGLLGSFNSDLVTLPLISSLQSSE
T1 sequence (looked up) 2: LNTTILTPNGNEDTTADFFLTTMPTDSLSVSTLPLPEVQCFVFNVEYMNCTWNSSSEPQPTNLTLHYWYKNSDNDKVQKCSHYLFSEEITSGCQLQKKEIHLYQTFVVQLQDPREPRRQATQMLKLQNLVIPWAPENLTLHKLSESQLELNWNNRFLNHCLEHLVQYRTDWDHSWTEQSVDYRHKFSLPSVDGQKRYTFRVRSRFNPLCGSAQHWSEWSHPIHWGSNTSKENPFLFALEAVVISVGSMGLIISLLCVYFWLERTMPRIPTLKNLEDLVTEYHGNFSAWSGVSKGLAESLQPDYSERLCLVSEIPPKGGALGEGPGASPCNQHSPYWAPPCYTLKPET
assay procedure: cell-based or functional assay
experimental readout: pSTAT3 (MFI) in CD8 T cells at 0.0001 µM
Reply numerically in MFI, unit not repeated.

Input line: Sample hIL10Ra_VHH14-hIL2Rg_VHH19, linker GGSGGS, tag his (bispecific antibody, not shown: small tags and cut ends) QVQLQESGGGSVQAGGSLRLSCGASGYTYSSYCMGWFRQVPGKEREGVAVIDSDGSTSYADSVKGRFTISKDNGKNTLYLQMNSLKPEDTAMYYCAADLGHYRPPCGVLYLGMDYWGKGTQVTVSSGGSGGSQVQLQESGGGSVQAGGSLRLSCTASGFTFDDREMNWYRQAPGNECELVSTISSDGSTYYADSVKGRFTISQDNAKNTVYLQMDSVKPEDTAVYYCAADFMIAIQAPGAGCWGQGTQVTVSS — what was its pSTAT3 (MFI) in CD8 T cells at 0.0001 µM?
Output line: 7960
